- System: NCI-H522 lung
- Measurement Description: NCI-60 one-dose screen, 48 h (100 = growth as untreated, 0 = no growth, -100 = all killed)
- Condition Summary: 10 µM unless noted
This is part of a sample that, as a whole, favours compounds with a hit. Of some 83,000 tested, about 20% had one in any assay.
Mark rule met for reported growth of 20% or greater; mark rule not met for anything smaller.

Consider the worked cases shown below.
{"columns": ["Compound", "Class Name"],
 "data": [
  ["Cc1ccc(/C=C/C(=O)c2ccc(NC(=O)CSc3nc4c([nH]3)c(=O)n(C)c(=O)n4C)cc2)c(C)c1", "rule met"],
  ["CCCCCCC(=O)Nc1ncc(Cc2ccc(C)cc2)s1", "rule met"],
  ["COc1cc(-c2nc(NC(C)=O)sc2-c2ccnc(NCCNS(=O)(=O)c3ccccc3)n2)ccc1Cl", "rule not met"],
  ["CSCCC(NC(=O)c1ccccc1)C(=O)N/N=C1\\S/C(=C/c2ccc(Cl)cc2)C(=O)N1C (centres undefined)", "rule met"],
  ["COc1cc(N2C(=O)[C@H](c3ccccc3)C2c2ccc(SC)cc2)cc(OC)c1OC (some centres undefined)", "rule not met"],
  ["COc1ccc(NC(=O)c2cccc(C3CCc4c(cc(OC)c(OC)c4OC)O3)c2)cc1 (centres undefined)", "rule met"],
  ["O=C(N/N=C/c1ccc(Cl)cc1Cl)c1ccc2nc(-c3ccc(Cl)cc3)[nH]c2c1", "rule met"],
  ["CCOC(=O)c1c(C)nc2c(c1N)CC(=O)N2Cc1cc(OC)c(OC)c(OC)c1", "rule met"]
]}

--- query ---
-- ask Could you tell me if the measured growth of Cc1nc2sc(C(=O)Nc3ccc(Cl)cc3)c(N)c2cc1C(O)c1ccccc1 (centres undefined) reaches 20% or more?
-- reply rule met
